READOUT: melting point

Below, 3 compounds whose answers are already recorded.
{"columns": ["COMPOUND", "VALUE"],
 "data": [
  ["CN(C)C1CN(c2cc3c(cc2F)c(=O)c(C(=O)O)cn3C2CC2)C1", "255 to 261 °C"],
  ["Cc1oc(-c2ccccc2)nc1CCOc1ccc(C[C@@H](C(=O)O)N2CCN(c3cccc(Cl)c3)CC2)cc1", "138 to 139 °C"],
  ["NS(=O)(=O)c1cc2ccc(O)cc2o1", "185 to 187 °C"]
]}

// melting point lookup, key: CC/C(=C\C=C\C(O)(C(F)(F)F)C(F)(F)F)c1ccc(COc2ccc(CO)c(CO)c2)s1
113 to 114 °C

// melting point lookup, key: COc1ccc2c(c1)c(CC(=O)NN)c(C)n2Cc1c(Cl)cccc1Cl
194 to 196 °C

// melting point lookup, key: Cc1nn(-c2cncc(F)c2)cc1[N+](=O)[O-]
90 to 92 °C

// melting point lookup, key: CC(C(=O)O)c1cccc(C(=O)c2ccccc2)c1[N+](=O)[O-] (stereo not drawn)
177 to 179 °C

// melting point lookup, key: CS(=O)(=O)N(CCc1ccccc1)CC(O)(Cn1cncn1)c1ccc(Cl)cc1Cl (stereo not drawn)
138 to 140 °C

// melting point lookup, key: CCn1nc2c(N)nc3ccccc3c2c1CC1(F)CCOCC1
275 to 277 °C
